tested on: DMS 114 small cell lung; test: NCI tumour cell line growth inhibition, 48 h
# TGI values compiled below

The examples below pair each entry with its known result.
# Compound, TGI
rows = [
    ("CC(=O)OCCOCNC(=S)N/N=C/c1ccc([N+](=O)[O-])s1", "26.4 µM"),
    ("CC(C)(C)OC(=O)N1C2CCCC23O[C@@H]1c1cc2c(cc1C3=O)OCO2 (stereo partly specified)", "> 100 µM"),
    ("CCOC(=O)CCC(NC(=O)c1ccc(NCc2ccc3nc(-c4ccccc4)c(Cl)nc3c2)cc1)C(=O)OCC (stereo unspecified)", "> 100 µM"),
    ("CCC[CH2][Sn]1([CH2]CCC)[O]CC(COc2c(Cl)cc(Cl)cc2Cl)[O]1 (stereo unspecified)", "1.58 µM"),
    ("CC1CCC(C(C)(C)c2ccccc2)C(=O)C1 (stereo unspecified)", "> 100 µM"),
    ("Nc1c(S(=O)(=O)c2ccccc2)c2nc3ccccc3nc2n2c1nc1ccccc12", "> 100 µM"),
    ("NC(CCc1ncc(C(=O)O)s1)C(=O)O (stereo unspecified)", "> 100 µM"),
    ("Cc1ccc(C)c(N2C(=O)C(=O)C(c3nc4ccccc4o3)/C(=N/N)C2=O)c1 (stereo unspecified)", "> 100 µM"),
    ("Nc1nc(SCc2ccccc2Cl)c2[nH]cnc2n1", "> 100 µM"),
    ("O=C1C=CC(=CC=C2C=CN(CCCCCCCCCCC(=O)NCCCCCCCCCCCC(=O)O)C=C2)C=C1", "> 100 µM"),
]

Measured on DMS 114 small cell lung, `CN(C)CCCNc1ccc2ncn3c4ccc(O)cc4c(=O)c1c23` has a documented TGI of 16.7 µM

Measured on DMS 114 small cell lung, `N#Cc1c(-c2ccco2)cc(-c2ccc(N)cc2)[nH]c1=O` has a documented TGI of > 100 µM

Measured on DMS 114 small cell lung, O=C1CC2CCN(C(=O)c3ccccc3)CC2CCN1 (stereo unspecified) has a documented TGI of > 100 µM

Measured on DMS 114 small cell lung, `Cc1c2ccc3ccccc3c2c[n+]2ccccc12` has a documented TGI of 20.7 µM

Measured on DMS 114 small cell lung, Cc1ccc(N2C(=O)N(c3ccc(C)cc3)C3(SC=NN3C)C2=O)cc1 (stereo unspecified) has a documented TGI of > 100 µM

Measured on DMS 114 small cell lung, C[n+]1c2ccccc2c(NC(CCCN=C(N)N)C(=O)O)c2ccccc21 (stereo unspecified) has a documented TGI of > 100 µM
